Provide the reported pIC50 of each item.
Target: UniProtKB P05979
Give bare numbers, as −log10 of the molar value.

O=C1C2=C(c3ccccc3)OCCCN2S(=O)(=O)c2ccccc21 : 3.98
COc1ccc(C2=C3C(=O)c4ccccc4S(=O)(=O)N3CCCO2)cc1 : 3.94
Cc1ccc(C(=O)C2=C(O)c3ccccc3S(=O)(=O)N2)cc1 : 4.05

Each compound below has a reported value. Please supply its pIC50.
1. O=C1C2=C(c3ccccc3)OCCN2S(=O)(=O)c2ccccc21
2. O=C1C2=C(c3ccc(Cl)cc3)OCCCN2S(=O)(=O)c2ccccc21

[4.18, 4.05]

====

Target sequence: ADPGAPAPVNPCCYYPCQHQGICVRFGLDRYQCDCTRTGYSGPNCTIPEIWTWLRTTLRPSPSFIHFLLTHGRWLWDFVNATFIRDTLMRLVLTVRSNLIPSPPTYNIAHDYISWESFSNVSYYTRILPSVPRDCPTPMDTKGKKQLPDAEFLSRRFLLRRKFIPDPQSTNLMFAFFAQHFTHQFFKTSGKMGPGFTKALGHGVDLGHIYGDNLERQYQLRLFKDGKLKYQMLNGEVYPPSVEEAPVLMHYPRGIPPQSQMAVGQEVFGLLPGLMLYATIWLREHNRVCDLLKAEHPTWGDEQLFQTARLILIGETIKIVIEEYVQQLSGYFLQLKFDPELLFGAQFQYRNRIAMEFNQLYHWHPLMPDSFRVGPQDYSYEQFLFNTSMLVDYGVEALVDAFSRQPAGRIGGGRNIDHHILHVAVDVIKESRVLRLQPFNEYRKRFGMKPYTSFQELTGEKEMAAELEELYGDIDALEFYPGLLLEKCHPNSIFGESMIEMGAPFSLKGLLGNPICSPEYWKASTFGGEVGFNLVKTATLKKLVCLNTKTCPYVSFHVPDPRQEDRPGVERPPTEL
Experimental endpoint: IC50 (µM)
Give bare numbers, in µM.

Example cases with answers are listed next.
O=C(C1=C(O)c2ccccc2S(=O)(=O)N1)c1ccccc1 : 91.2
O=C1C2=C(c3ccccc3)OCCCCN2S(=O)(=O)c2ccccc21 : 86.1
O=C(C1=C(O)c2ccccc2S(=O)(=O)N1)c1ccc(Cl)cc1 : 89

# IC50 (molecule: Cc1ccc(C2=C3C(=O)c4ccccc4S(=O)(=O)N3CCCO2)cc1 ) is 126

Every entry's value here was drawn from paper PMC8346139.
